# hERG current change (%, negative = inhibition) at 1uM per record follows
target.or.system: human ether-à-go-go-related gene (hERG) potassium channel (human, UniProt Q12809)
Sequence (Q12809 whole entry, looked up): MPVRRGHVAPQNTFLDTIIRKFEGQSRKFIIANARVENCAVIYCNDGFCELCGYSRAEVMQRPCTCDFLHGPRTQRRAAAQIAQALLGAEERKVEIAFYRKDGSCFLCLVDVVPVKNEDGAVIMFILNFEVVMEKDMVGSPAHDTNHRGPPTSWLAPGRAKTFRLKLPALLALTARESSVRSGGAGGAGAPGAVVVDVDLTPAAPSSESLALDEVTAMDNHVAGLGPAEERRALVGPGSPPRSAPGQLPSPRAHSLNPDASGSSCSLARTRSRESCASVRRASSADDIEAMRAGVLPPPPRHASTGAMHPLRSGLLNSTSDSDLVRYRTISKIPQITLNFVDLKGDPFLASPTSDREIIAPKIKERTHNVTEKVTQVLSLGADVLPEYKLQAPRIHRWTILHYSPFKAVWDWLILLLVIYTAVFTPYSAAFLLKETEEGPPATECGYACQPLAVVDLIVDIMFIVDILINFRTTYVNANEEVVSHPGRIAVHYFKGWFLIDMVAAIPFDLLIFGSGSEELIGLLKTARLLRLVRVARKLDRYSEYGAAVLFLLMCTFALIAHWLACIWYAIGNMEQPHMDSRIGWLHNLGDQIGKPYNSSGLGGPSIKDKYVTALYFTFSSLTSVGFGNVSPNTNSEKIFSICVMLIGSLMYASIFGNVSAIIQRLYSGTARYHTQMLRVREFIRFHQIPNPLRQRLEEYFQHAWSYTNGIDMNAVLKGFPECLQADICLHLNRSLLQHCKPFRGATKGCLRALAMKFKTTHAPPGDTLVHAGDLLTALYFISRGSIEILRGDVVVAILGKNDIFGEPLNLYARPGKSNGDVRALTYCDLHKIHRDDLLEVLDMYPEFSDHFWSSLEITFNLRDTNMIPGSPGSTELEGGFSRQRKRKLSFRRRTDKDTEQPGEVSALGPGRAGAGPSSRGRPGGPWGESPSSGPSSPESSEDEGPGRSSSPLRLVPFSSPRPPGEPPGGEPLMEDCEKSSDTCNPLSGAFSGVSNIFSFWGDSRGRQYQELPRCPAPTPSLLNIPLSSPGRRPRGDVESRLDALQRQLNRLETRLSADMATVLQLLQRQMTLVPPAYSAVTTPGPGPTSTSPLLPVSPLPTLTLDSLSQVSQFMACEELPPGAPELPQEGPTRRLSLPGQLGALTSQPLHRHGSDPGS
protocol.description: primary screen, population patch clamp on CHO cells stably expressing hERG; higher = less effect of the substance
Out of some 310,000 compounds screened, about 2,200 (0.71%) showed an effect of 50% or more. The effect is printed as a negative number. What follows is part of a selection rich in strong results, with near analogues and random picks from the rest.
endpoint: hERG current change (%, negative = inhibition) at 1uM (%)

>>> observed("CC(=O)c1ccc(-c2ccc(C(=O)NC3CCCCCC3)o2)cc1")
29.5
>>> observed("CC(C)C(=O)Nc1ccc(NC(=O)c2ccccn2)cn1")
12.6
>>> observed("COCCNC(=O)c1cc2c(=O)n3cccc(C)c3nc2n(Cc2ccncc2)c1=N")
-31.5
>>> observed("CC(=O)c1ccc(-c2ccc(C(=O)NC3CC(C)(C)NC(C)(C)C3)o2)cc1")
-71.1
>>> observed("CCCCNC(=O)c1cc2c(=O)n3cccc(C)c3nc2n(Cc2ccncc2)c1=N")
-75.4

----------
# hERG current change (%, negative = inhibition) at 1uM per record follows
target.or.system: human ether-à-go-go-related gene (hERG) potassium channel (human)
protocol.description: primary screen, population patch clamp on CHO cells stably expressing hERG; higher = less effect of the substance
Hit rate of the full screen: of about 310,000 compounds, about 2,200 (0.71%) showed an effect of 50% or more. Effects have a minus sign here. Shown is part of a subset that was picked to be rich in strong results.
endpoint: hERG current change (%, negative = inhibition) at 1uM (%)

>>> observed("Cc1ccc(CN2CCCC(C(=O)c3ccc4c(c3)OCO4)C2)cc1C (stereo not shown)")
-27.1
>>> observed("Cl.Nc1nc(N2CCCCC2)nc2ccccc12")
-15.9
>>> observed("Cc1ccsc1C(=O)C1CCCN(Cc2cc(F)ccc2-n2cccn2)C1 (stereo not shown)")
-45.5
>>> observed("O=C(c1ccc2c(c1)OCO2)C1CCCN(Cc2ccc3cccc(F)c3n2)C1 (stereo not shown)")
-81.5
>>> observed("Cc1ccsc1C(=O)C1CCCN(Cc2ccc(-n3cccn3)cc2)C1 (stereo not shown)")
-3.18
>>> observed("COc1cc(OC)c(OC)cc1CN1CCCC(C(=O)c2ccc3c(c2)OCO3)C1 (stereo not shown)")
-27.7
>>> observed("Cc1ccc(-n2cccn2)c(CN2CCCC(C(=O)c3sccc3C)C2)c1 (stereo not shown)")
-82.8
>>> observed("CCc1ccc(CNCc2cccnc2)cc1")
9.07
>>> observed("O=C(c1ccc2c(c1)OCO2)C1CCCN(Cc2ccc(F)c(F)c2)C1 (stereo not shown)")
5.03
>>> observed("CN(C)c1ccc(CNc2nc(-c3ccccc3)nn2S(C)(=O)=O)cc1")
14.6

----------
target.or.system: human ether-à-go-go-related gene (hERG) potassium channel (human, UniProt Q12809)
protocol.description: primary screen, population patch clamp on CHO cells stably expressing hERG; higher = less effect of the substance
Hit rate of the full screen: of about 310,000 compounds, about 2,200 (0.71%) showed an effect of 50% or more. The effect is printed as a negative number. The entries come from a sample that favours strong results as a whole.
# hERG current change (%, negative = inhibition) at 1uM per record follows
endpoint: hERG current change (%, negative = inhibition) at 1uM

>>> observed("O=C(CSc1nnc(COc2ccccc2)o1)NC1CC2CCC1C2 (stereo not drawn)")
"14.8%"
>>> observed("CC(C)Oc1cccc(C(=O)C2CCCN(Cc3ccc(Oc4ncccn4)cc3)C2)c1 (stereo not drawn)")
"-7.28%"
>>> observed("CC(C)Oc1cccc(C(=O)C2CCCN(Cc3cccn3-c3cccnc3)C2)c1 (stereo not drawn)")
"12.4%"
>>> observed("CCCc1nc(NC(C)=O)c(C#N)c(-c2ccco2)c1CC")
"0.0807%"
>>> observed("CC(=O)Nc1cccc(NC(=O)CSc2nccn2Cc2ccccc2)c1")
"14.4%"
>>> observed("Cc1ccc(NC(=O)CSCC(=O)NCc2cccc(C(F)(F)F)c2)cc1")
"6.6%"
>>> observed("CCOC(=O)Nc1nc(C)c(C(=O)N(C)C)s1")
"-1.49%"
>>> observed("COc1cccc(C(=O)C2CCCN(Cc3ccccn3)C2)c1 (stereo not drawn)")
"-0.481%"
>>> observed("CNC(=O)CC1C(=O)N(c2ccc(Cl)cc2)C(=S)N1CCc1ccc(OC)c(OC)c1 (stereo not drawn)")
"10.1%"
>>> observed("COC(=O)C1=C(C(=O)OC)SC2(S1)C(C(=O)OC)=C(C(=O)OC)SC1=C2c2cccc(C)c2NC1(C)C")
"-79.1%"
>>> observed("COc1nc(NC2CCCCC2)nc(NC(C)(C)C)n1")
"4.9%"
>>> observed("CO/N=C(\\Cn1ncc(NC2CCCCC2)c(Br)c1=O)c1ccc(Cl)cc1")
"-1.74%"
>>> observed("COc1cc(-c2nc3ccccn3c2NCC2CCCO2)ccc1O (stereo not drawn)")
"2.7%"
>>> observed("Cc1cc(C)c(S(=O)(=O)N2CCCCC2CCNC(=O)C(=O)NCCN2CCOCC2)c(C)c1 (stereo not drawn)")
"6.75%"
>>> observed("CC1OC2(OC1C)C(=O)Nc1ccccc12 (stereo not drawn)")
"6.93%"
>>> observed("Cc1cccn2c(=O)c3cc(C(=O)NCC4CCCO4)c(=N)n(C4CCCCC4)c3nc12 (stereo not drawn)")
"-83.7%"
>>> observed("COc1cccc(C(=O)C2CCCN(Cc3cccn3-c3ccccn3)C2)c1 (stereo not drawn)")
"-84%"
>>> observed("Nc1n[nH]c2cc(=O)n(-c3cccc(C(F)(F)F)c3)nc12")
"12.3%"
>>> observed("CC(C)Oc1cccc(C(=O)C2CCCN(Cc3cccn3-c3ccccn3)C2)c1 (stereo not drawn)")
"-81.7%"
>>> observed("COC(=O)c1sc(S(=O)(=O)NC(C)C(=O)O)c(C(=O)OC)c1C (stereo not drawn)")
"-4.83%"
>>> observed("CCOc1nc(C)cc(C)c1S(=O)(=O)c1ccc(Cl)cc1")
"9.36%"

----------
target.or.system: human ether-à-go-go-related gene (hERG) potassium channel (human)
protocol.description: primary screen, population patch clamp on CHO cells stably expressing hERG; higher = less effect of the substance
The campaign covered roughly 310,000 compounds. About 2,200 (0.71%) showed an effect of 50% or more. Effects have a minus sign here. The full list was thinned out, with strong results kept by preference.
# hERG current change (%, negative = inhibition) at 1uM per record follows
endpoint: hERG current change (%, negative = inhibition) at 1uM (%)

>>> observed("Cc1cccc(S(=O)(=O)Nc2ccc(-c3ccc4nncn4n3)cc2)c1")
-85.6
>>> observed("Cl.Oc1ccc2c3c1O[C@H]1c4[nH]c5ccccc5c4C[C@@]4(O)[C@@H](C2)N(CC2CC2)CC[C@]314")
-29.7
>>> observed("CCOC(=O)C1=C(c2ccccc2)NC(=O)N(C(C)=O)C1c1cccc([N+](=O)[O-])c1 (stereo not drawn)")
10.2
>>> observed("CS(=O)(=O)O.O.Oc1ccc2c3c1O[C@H]1c4oc5ccccc5c4C[C@@]4(O)[C@@H](C2)N(CC2CC2)CC[C@]314")
-68.1
>>> observed("COc1ccc(-n2c(Cc3cccn3C)nnc2SCC(=O)Nc2cc(Cl)ccc2OC)cc1")
-50.9
>>> observed("CCOC(=O)C(C)(C)Sc1nc2c(cnn2-c2ccc(Cl)cc2)c(=O)[nH]1")
4.97
>>> observed("COc1cc(NC(=O)C/C(C)=N/NC(=O)C2CCCCC2)c(OC)cc1Cl")
14.8
>>> observed("COc1ccc(OCC(=O)NCCCNC(=O)COc2ccc(OC)cc2)cc1")
4.68
>>> observed("COC(=O)c1ccc(C)c(NC(=O)c2ccc(Cl)c([N+](=O)[O-])c2)c1")
5.94
>>> observed("Cc1ccc(S(=O)(=O)N2CCOC23CCN(C(=O)C(=O)NCCC(C)C)CC3)cc1")
4.48
>>> observed("COc1ccc(CC2(CO)CCN(Cc3cnn(-c4ccccc4OC)c3)CC2)cc1")
-48.4
>>> observed("O=C(CN1CCN(S(=O)(=O)N2CCCCC2)CC1)Nc1ccc(Br)cc1")
2.87
>>> observed("COc1ccccc1CNS(=O)(=O)c1ccc(-n2cccn2)cc1")
13.3
>>> observed("O=S(=O)(Nc1ccc(-c2ccc3nncn3n2)cc1)c1cccc(F)c1")
14.1
>>> observed("OCC1(Cc2ccccc2)CCCN(Cc2cnn(-c3ccccc3)c2)C1 (stereo not drawn)")
-27.4
>>> observed("COc1ccc(NC(=O)CN2CCN(S(=O)(=O)N3CCCCCC3)CC2)cc1")
-60.8
>>> observed("COc1cc(NC(=O)C/C(C)=N/NC(=O)C(=O)NC2CCCCC2)c(OC)cc1Cl")
-66.8
>>> observed("Cc1nn(C/C(C#N)=N\\O)c(C)[n+]1N.[Cl-]")
11.8
>>> observed("Cc1ccc(SCCC(=O)NCCSCc2ccccc2C)cc1")
10.1
>>> observed("COc1ccc(-c2[nH]ncc2CN(C)CCCN2CCOCC2)cc1F")
12
>>> observed("COc1ccc(-n2c(SCC(=O)NCC3CCCO3)nc3n[nH]c(C)c3c2=N)cc1 (stereo not drawn)")
7.29
>>> observed("Cl.O.Oc1ccc2c3c1O[C@H]1c4[nH]c5ccccc5c4C[C@@]4(O)C(C2)N(CC2CC2)CC[C@]314")
-16.4
>>> observed("O=C(CN1CCN(S(=O)(=O)N2CCCCCC2)CC1)Nc1ccc(F)cc1")
-75.1
>>> observed("CC(=O)Nc1cc(C(C)(C)C)c(O)c(C(C)(C)C)c1")
13.4
>>> observed("O=C(CCCN1C(=O)/C(=C\\c2cccs2)SC1=S)NNC(=O)c1ccncc1")
4.39
>>> observed("COc1ccc(NC(=O)CN2CCCCC2)cc1.O=C(O)C(=O)O")
10.6
>>> observed("Nc1nnc(SCC(=O)OCc2ccccc2)s1")
14.4
>>> observed("CCOC(=O)N1CCN(c2nc(-c3ccc(Cl)cc3)cs2)CC1")
-8.51
>>> observed("Cc1ccc(N2C(=O)C3C4CC(=O)C(c5ccccc54)C3C2=O)cc1 (stereo not drawn)")
4.46
>>> observed("COc1ccc(NC(=O)C/C(C)=N/NC(=O)C(=O)NC2CCCCC2)c(OC)c1")
-3.65
>>> observed("O=CNc1ccc(OP(=O)(Oc2ccccc2)Oc2ccccc2)cc1")
1.71
>>> observed("O=C(Nc1cnccn1)c1ccncc1")
-8.03
>>> observed("CCOc1cc(CN2CCC(CO)(Cc3cccc(C(F)(F)F)c3)CC2)ccc1OC")
-78
>>> observed("COc1ccc(CN2CCCN(S(=O)(=O)c3ccc(Br)cc3)CC2)cc1")
-75.6
>>> observed("OCC1(Cc2cccc(C(F)(F)F)c2)CCN(Cc2cc(F)cc(F)c2)CC1")
4.2
>>> observed("O=C(CN1CCN(C(=O)N2CCCCC2)CC1)Nc1ccc(F)cc1")
-76.5
>>> observed("CCC(=O)N1CCN(c2nc(-c3ccc(Cl)cc3)cs2)CC1")
9.84
>>> observed("COc1ccc(NC(=O)CN2CCN(S(=O)(=O)N(C)C)CC2)cc1")
13.9
>>> observed("Cc1nc2c(ccc3nc(NC(=O)c4ccc5c(c4)OCCO5)sc32)s1")
-86.6
